Each item that follows carries a reported EC50.
Biological target: FXR (Homo sapiens (Human), UniProt Q96RI1)
Sequence (Q96RI1 262-486): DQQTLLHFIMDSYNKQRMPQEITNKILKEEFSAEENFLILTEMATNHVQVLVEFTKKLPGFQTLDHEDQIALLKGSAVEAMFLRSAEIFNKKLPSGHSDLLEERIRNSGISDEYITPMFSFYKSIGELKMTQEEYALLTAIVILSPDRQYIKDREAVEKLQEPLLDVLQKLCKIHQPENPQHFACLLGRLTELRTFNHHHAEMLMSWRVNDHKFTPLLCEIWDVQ
Assay: FXR EC50 (FXR agonist potency reported with each Example)
Assay type: cell-based
Number only, in nM; omit the unit.

Some entries whose results are on file:
input_smiles=O=C(C1CC(F)(F)C1)N(CC12CCC(c3nc(C4CC4)no3)(CC1)CC2)c1cccc(-c2cnc(C3CC3)o2)c1 readout_value=133
input_smiles=CCOC(=O)c1coc(-c2cccc(N(CC34CCC(c5nc(C)no5)(CC3)CC4)C(=O)C34CC(F)(C3)C4)c2)n1 readout_value=1710

Now consider the entry below.
Prompt line: Kindly indicate its recorded EC50. Item: `O=C(N(CC12CCC(c3nc(C4CC4)no3)(CC1)CC2)c1cccc(-c2cnn(CC(F)(F)F)c2)c1)C12CC(F)(C1)C2`
Response line: 116
